# Tested on: CASKI
# assay.overview: Primary qHTS to identify gynecologic anti-cancer compounds using libraries of approved drugs and bioactive compounds (AID 1345084); also: nearly all actives have a fitted effect of over 55% in size
# measurement.parameters: Gynecologic cancer cell panel viability, ATPlite luminescence, 48 h; series mostly up to 57.5 µM
Results filed as inconclusive are left out. Active and inactive are the calls of the source. Calls follow the shape of the dose curve; as a rule, active = well fitted cell-killing curve with a large enough effect; inconclusive = small, poorly fitted or top-dose-only effect, or effect the other way; inactive = flat fitted curve, though single readings scatter.
Respond only with the outcome that fits, drawn from active, inactive

// below: answered compounds
[
  {
    "compound": "CNC(=O)c1c(F)cccc1Nc1nc(Nc2cc3c(cc2OC)CCN3C(=O)CN(C)C)nc2[nH]ccc12",
    "classification": "inactive"
  },
  {
    "compound": "CS(=O)(=O)c1ccc(-c2cnc(N)c(C(=O)Nc3ccccc3)n2)cc1",
    "classification": "inactive"
  },
  {
    "compound": "NC(=O)c1cccc2cn(-c3ccc([C@@H]4CCCNC4)cc3)nc12",
    "classification": "inactive"
  },
  {
    "compound": "O=C(CCCCCCC(=O)Nc1ccc([C@H]2O[C@@H](CSc3nc(-c4ccccc4)c(-c4ccccc4)o3)C[C@@H](c3ccc(CO)cc3)O2)cc1)NO",
    "classification": "inactive"
  },
  {
    "compound": "O=C(O)C1(Cc2cccc(Nc3nccs3)n2)CCC(Oc2cccc(Cl)c2F)CC1 (centres undefined)",
    "classification": "inactive"
  }
]

Consider the record given below.
Inquiry: Entry CN1CCN(Cc2ccc(NC(=O)Nc3ccc(Oc4cc(NC(=O)C5CC5)ncn4)cc3)cc2C(F)(F)F)CC1 : call = ?
Reply text: active

###

# assay.overview: Quantitative High-Throughput drug screen in 47 multiple myeloma cell lines against the NCATS MIPE library collection: FR4_PLB cell viability assay (AID 1918924; also: potency is read from the fitted curve at half-maximal effect; nearly all actives have a fitted effect of over 35% in size)
# measurement.parameters: FR4_PLB myeloma cells viability, CellTiter-Glo ATP, 48 h; series mostly up to 45.8 µM
Inconclusive results are not listed. The source made the active and inactive calls. Calls follow the shape of the dose curve; as a rule, active = well fitted cell-killing curve with a large enough effect; inconclusive = small, poorly fitted or top-dose-only effect, or effect the other way; inactive = no such curve, though single readings can be large or run the other way.
endpoint.name: Potency

[
  {
    "smiles.input": "CC(C)CC(=O)Nc1n[nH]c2c1CN(C(=O)C1CCN(C)CC1)C2(C)C",
    "Potency": "1660 nM (active)"
  },
  {
    "smiles.input": "CC(C)(C)OC(=O)Nc1ccc(-c2cc(C(=O)NCCCCCCC(=O)NO)no2)cc1",
    "Potency": "1320 nM (active)"
  },
  {
    "smiles.input": "COc1cc2ncn(-c3cc(OCc4ccccc4C(F)(F)F)c(C(N)=O)s3)c2cc1OC",
    "Potency": "5260 nM (active)"
  },
  {
    "smiles.input": "CC(=O)OCC(=O)[C@@]1(O)[C@H](C)C[C@H]2[C@@H]3C=C(C)C4=Cc5c(cnn5-c5ccccc5)C[C@]4(C)[C@@H]3[C@@H](O)C[C@@]21C",
    "Potency": "14800 nM (active)"
  },
  {
    "smiles.input": "CN1CCN(Cc2ccc(NC(=O)Nc3ccc(Oc4cc(NC(=O)C5CC5)ncn4)cc3)cc2C(F)(F)F)CC1",
    "Potency": "296 nM (active)"
  }
]

Inquiry: Name the recorded Potency for CNC(=O)c1cc(Oc2ccc(NC(=O)Nc3cc(C(C)(C)C)nn3-c3ccc4ncccc4c3)c(F)c2)ccn1 .
Reply text: 4690 nM (active)

Inquiry: Another: CC(C)(O)c1cc2nc(-c3cnc(N)nc3)nc(N3CCOCC3)c2s1
Reply text: 235 nM (active)

Inquiry: Another: Cc1ccc(-c2ncn(-c3ccc(Nc4nccc(-c5cccc(N6CCOCC6)c5)n4)cc3)n2)cn1
Reply text: 132 nM (active)
